experiment: qHTS assay to identify small molecule antagonists of the estrogen receptor alpha (ER-alpha) signaling pathway using the BG1 cell line - cell viability counter screen (AID 743081); conditions: BG1Luc4E2 viability, CellTiter-Fluor, 22 h; series mostly up to 70.3 µM;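 note: compound given together with 17beta-estradiol as the ER stimulus; nearly all actives have a fitted effect of over 45% in size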
Records with an inconclusive call do not appear. Calls of active or inactive are those of the source. Calls come from the whole dose curve; as a rule, active = well fitted cell-killing curve with a large enough effect in the repeat runs; inconclusive = weak or mixed curves, or effect the other way; inactive = flat fitted curve, though single readings scatter.
Thanks in advance; please answer with one of these: active, inactive

Name the outcome recorded for CCCNC(C)C(=O)Nc1ccccc1C (configuration not stated) in the assay. inactive

For this compound, state the assay outcome: CO[Si](OC)(OC)c1ccccc1 inactive

What was the test verdict on NC(Cc1ccc(Cl)cc1)C(=O)O (configuration not stated) ? inactive

Please let me know the test result on file for O=C1Nc2ccccc2C1(c1ccc(O)cc1)c1ccc(O)cc1 . active

So what was the verdict on CC(=O)C1=C(C)[C@@H]2C[C@@]3(C1)[C@H](C)CC[C@H]3C2(C)C in this test? inactive

How did this test come out for Nc1ccc2cc3ccccc3cc2c1 ? inactive

Could you kindly confirm the outcome this assay logged for C=CC(=O)OCCCCCCOC(=O)C=C ? inactive

----------
experiment: qHTS assay to identify small molecule antagonists of the estrogen receptor alpha (ER-alpha) signaling pathway - cell viability counter screen (AID 743074); settings: ERalpha-bla HEK293 viability, CellTiter-Glo luminescence, 18 h; series mostly up to 69.4 µM;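 note: HEK293 cells carrying ER-alpha-UAS-bla reporter stimulated with 17beta-estradiol; nearly all actives have a fitted effect of over 45% in size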
Results filed as inconclusive are left out. Activity calls are given as the source filed them. The call rests on the fitted dose curve.
# output must be one of active, inactive

Each molecule tested received a call. Report the one for COc1nc(C)nc(Cl)c1NC1=NCCN1 . inactive

Field: outcome | Entry: CC[C@@H](N)CO inactive

Which outcome was assigned to Cc1ccnc2c1NC(=O)c1cccnc1N2C1CC1 in this test? inactive

Each molecule tested received a call. Report the one for NNCCc1ccccc1 . inactive

Hi, sorry to bother you, what did the test record for C1COC(NC(C2CC2)C2CC2)=N1 ? inactive

Any idea what this test logged for C=C(C)C(=O)O ? inactive

Recorded test call requested for CC[C@H]1CN2CCc3cc(OC)c(OC)cc3[C@@H]2C[C@@H]1C[C@H]1NCCc2cc(OC)c(OC)cc21 inactive

Give the logged outcome of this assay for the following molecule: O=C1OC2(c3ccc(O)cc3Oc3cc(O)ccc32)c2ccccc21 inactive

How was CCCC(=O)c1ccccc1 classified in this test? inactive

Please let me know the test result on file for COc1ccc(COC(C)=O)cc1 . inactive

Check the results log: what was the call for CC(=O)C1=C(C)[C@@H]2C[C@@]3(C1)[C@H](C)CC[C@H]3C2(C)C ? inactive

Which outcome was assigned to BrC1CCC(Br)C(Br)CCC(Br)C(Br)CCC1Br (stereo not drawn) in this test? active

Status in this test for CCOC(=O)C(C)C(C)=O (stereo not drawn) ? inactive

Please share the test call associated with C=CC(=O)OCCCCCCCC . inactive

What was the test verdict on CC(=O)Nc1ccc(C(=O)CCl)cc1 ? inactive

Identify the outcome logged in this assay for the molecule shown: COc1cc(C(=S)N2CCOCC2)ccc1O inactive

Which outcome was assigned to Nc1ccc(O)cc1 in this test? inactive

Write down the call the test reported for this molecule. Item: CN(C)c1ccc(C(=C2C=CC(=[N+](C)C)C=C2)c2ccccc2)cc1 active

Assay result, entry NC(Cc1ccc(Cl)cc1)C(=O)O (stereo not drawn) — outcome? inactive

Status in this test for O=C(Oc1ccccc1)c1ccccc1O ? inactive

Recorded test outcome, item CCC(C)(C)C(=O)O[C@H]1C[C@@H](C)C=C2C=C[C@H](C)[C@H](CC[C@@H]3C[C@@H](O)CC(=O)O3)[C@H]21 inactive

Kindly provide the recorded test outcome for the following molecule: CO[Si](OC)(OC)c1ccccc1 inactive

// return assay outcome for O=Cc1ccc(Cl)cc1 inactive

Per the records of this test, what outcome belongs to CC(C)CCOC(=O)c1ccc(N(C)C)cc1 ? inactive

Query: recorded result category for O=C(Cl)c1cccc(C(=O)Cl)c1 in this test inactive

Could you check what this test reported for NCCCCCC(=O)O ? inactive

What did the test return for CCn1cc(C(=O)O)c(=O)c2cc(F)c(N3CCNC(C)C3)c(F)c21 (stereo not drawn) ? inactive

Please indicate how the test categorized O=C(O)c1cc(Cl)cc(Cl)c1 . inactive
